Measured MIC accompanies every entry in the list below.
test system: C. albicans ATCC MYA-1237(R) (strain F); assay: MIC determination, in vitro antifungal assay (CLSI M27-A3); type: cell-based, Candida albicans; details: Candida albicans, 48 h, MIC-0, 48 h at 35° C., read-out: MIC

Please give measured MIC of the following entry: Fc1cc(F)cc(N/N=C/c2ccc(-c3ccc(/C=N/Nc4cc(F)cc(F)c4)cc3)cc2)c1 [Compound 22b]
> 31.3 µg/mL

Please give measured MIC of the following entry: Fc1cccc(N/N=C/c2ccc(-c3cccc(/C=N/Nc4cccc(F)c4)c3)cc2)c1 [Compound 12a]
7.8 to 15.6 µg/mL

Please give measured MIC of the following entry: COc1ccc(N/N=C/c2ccc(-c3cccc(/C=N/Nc4ccc(OC)cc4)c3)cc2)cc1 [Compound 15a]
1.95 to 3.9 µg/mL

Please give measured MIC of the following entry: CC(C)Oc1ccc(N/N=C/c2ccc(-c3ccc(/C=N/Nc4ccc(OC(C)C)cc4)cc3)cc2)cc1 [Compound 16b]
> 31.3 µg/mL
